Biological target: HLA-A*02:01 (Homo sapiens, UniProt P04439, D140Y/D185E/D98H/E176V/E277Q/G131W/G231S/I119V/I121R/I166T/I218V/L300P/L318F/N151K/N90K/P208A/P217A/Q86G/Q94H/R138H/R169H/T345S)
Experiment: MHC binding assay: UV-ligand exchange with β2m ELISA (peptide exchange yield)
Conditions: binding to HLA-A*02:01 evaluated by peptide exchange yield (UV-ligand exchange, β2m ELISA)
Description: Candidate peptides for T cell based therapies according to the present invention were further tested for their MHC binding capacity (affinity). The individual peptide-MHC complexes were produced by UV-ligand exchange, where a UV-sensitive peptide is cleaved upon UV-irradiation, and exchanged with the peptide of interest as analyzed. Only peptide candidates that can effectively bind and stabilize the peptide-receptive MHC molecules prevent dissociation of the MHC complexes. […]

substance | Peptide exchange
20 (ALVEKGEFAL; listed as Homo sapiens) [compound 20] | ++ (≥20% = ++)
63 (KLLPMVIQL; listed as Homo sapiens) [compound 63] | +++ (≥50 = +++)
82 (ILAEEPIYIRV; listed as Homo sapiens) [compound 82] | +++ (≥50 = +++)
215 (QIADIVTSV; listed as Homo sapiens) [compound 215] | ++ (≥20% = ++)
99 (TLFGIQLTEA; listed as Homo sapiens) [compound 99] | +++ (≥50 = +++)
115 (ILHGEVNKV; listed as Homo sapiens) [compound 115] | ++ (≥20% = ++)
250 (LMQDSRLYL; listed as Homo sapiens) [compound 250] | +++ (≥50 = +++)

Values from patent US10745460B2
